# procedure_summary: Single dose plasma pharmacokinetics in patients
# Format: in vivo, human
# conditions_used: human, plasma, po, median time to maximal concentration (Tmax), across all doses and regimens
value_kind: Tmax

What does the record list as Tmax for Cn1ncc(Cl)c1-c1cc(C(=O)N[C@H](CN)Cc2ccc(F)c(F)c2)oc1Cl ? 3 to 8 h

###

# procedure_summary: Repeat dose plasma pharmacokinetics in patients
# Type: in vivo, human
# conditions_used: human, plasma, oral, 20 mg, Cmax, repeat dose 20 mg once daily (n = 1), day 8
value_kind: Cmax (ng/mL)
Write the number in ng/mL without appending the unit.

What does the record list as Cmax for Cn1ncc(Cl)c1-c1cc(C(=O)N[C@H](CN)Cc2ccc(F)c(F)c2)oc1Cl ? 90.3
